Tested on: Herpes virus of type I
assay: Protection of Vero cells from Herpes virus of type I
Assay type: cell-based
conditionInfo: compound 10 mg/l
observedProperty: percentage of protection of cells from virus (%)

| compound | assayedSystem | experimentalResult |
| --- | --- | --- |
| Nc1nc(=S)[nH]c2c1C(c1ccc([N+](=O)[O-])cc1)c1c(O)nc(=S)[nH]c1O2 (stereo not shown) [III] | Herpes virus of type I | 70 |
| Nc1nc(=S)[nH]c2c1C(c1ccc([N+](=O)[O-])cc1)c1c(N)nc(=S)[nH]c1O2 [V] | Herpes virus of type I | 60 |
| Oc1nc(=S)[nH]c2c1C(c1ccccc1)c1c(Cl)nc(=S)[nH]c1O2 (stereo not shown) [Ia] | Herpes virus of type I | 60 |
| Nc1nc(=S)[nH]c2c1C(c1ccc([N+](=O)[O-])cc1)c1c(Cl)nc(=S)[nH]c1O2 (stereo not shown) [IV] | Herpes virus of type I | 50 |
| O=[N+]([O-])c1ccc(C2c3cnc(=S)[nH]c3Oc3[nH]c(=S)nc(O)c32)cc1 (stereo not shown) [XI] | Herpes virus of type I | 50 |
| Nc1nc(=S)[nH]c2c1C(c1ccc([N+](=O)[O-])cc1)c1c(N)nc(=S)[nH]c1N2 [VI] | Herpes virus of type I | 70 |
| O=[N+]([O-])c1ccc(C2c3c(O)nc(=S)[nH]c3Oc3[nH]c(=S)nc(Sc4nc(O)cc(O)n4)c32)cc1 (stereo not shown) [X] | Herpes virus of type I | 60 |
| O=[N+]([O-])c1ccc(C2c3c(O)nc(=S)[nH]c3Oc3[nH]c(=S)nc(O)c32)cc1 [XII] | Herpes virus of type I | 10 |
| CN(C)c1nc(=S)[nH]c2c1C(c1ccc([N+](=O)[O-])cc1)c1c(O)nc(=S)[nH]c1O2 (stereo not shown) [IX] | Herpes virus of type I | 50 |

* * *

A collection of compounds and their measured Number of cells
System: Herpes virus of type I
assay: Protection of Vero cells from Herpes virus of type I
Assay type: cell-based
conditionInfo: number of cells in 100 fields, compound 100 mg/l

| compound | Number of cells |
| --- | --- |
| Nc1nc(=S)[nH]c2c1C(c1ccc([N+](=O)[O-])cc1)c1c(O)nc(=S)[nH]c1O2 (stereo not drawn) [III] | 12000 |
| Oc1nc(=S)[nH]c2c1C(c1ccccc1)c1c(Cl)nc(=S)[nH]c1O2 (stereo not drawn) [Ia] | 10800 |
| Nc1nc(=S)[nH]c2c1C(c1ccc([N+](=O)[O-])cc1)c1c(Cl)nc(=S)[nH]c1O2 (stereo not drawn) [IV] | 9600 |
| O=[N+]([O-])c1ccc(C2c3c(O)nc(=S)[nH]c3Oc3[nH]c(=S)nc(O)c32)cc1 [XII] | 6000 |
| Nc1nc(=S)[nH]c2c1C(c1ccc([N+](=O)[O-])cc1)c1c(N)nc(=S)[nH]c1O2 [V] | 10800 |
| CN(C)c1nc(=S)[nH]c2c1C(c1ccc([N+](=O)[O-])cc1)c1c(O)nc(=S)[nH]c1O2 (stereo not drawn) [IX] | 9600 |
| O=[N+]([O-])c1ccc(C2c3c(O)nc(=S)[nH]c3Oc3[nH]c(=S)nc(Sc4nc(O)cc(O)n4)c32)cc1 (stereo not drawn) [X] | 10800 |
| Nc1nc(=S)[nH]c2c1C(c1ccc([N+](=O)[O-])cc1)c1c(N)nc(=S)[nH]c1N2 [VI] | 12000 |
| O=[N+]([O-])c1ccc(C2c3cnc(=S)[nH]c3Oc3[nH]c(=S)nc(O)c32)cc1 (stereo not drawn) [XI] | 9600 |

* * *

Tested on: Herpes virus of type I
assay: Protection of Vero cells from Herpes virus of type I
Format: cell-based
conditionInfo: compound 50 mg/l
Attribute: percentage of protection of cells from virus
observedProperty: percentage of protection of cells from virus (%)

| molecule | assayedSystem | experimentalResult |
| --- | --- | --- |
| Oc1nc(=S)[nH]c2c1C(c1ccccc1)c1c(Cl)nc(=S)[nH]c1O2 (stereo not drawn) | Herpes virus of type I | 80 |
| Nc1nc(=S)[nH]c2c1C(c1ccc([N+](=O)[O-])cc1)c1c(N)nc(=S)[nH]c1N2 | Herpes virus of type I | 90 |
| O=[N+]([O-])c1ccc(C2c3cnc(=S)[nH]c3Oc3[nH]c(=S)nc(O)c32)cc1 (stereo not drawn) | Herpes virus of type I | 70 |
| CN(C)c1nc(=S)[nH]c2c1C(c1ccc([N+](=O)[O-])cc1)c1c(O)nc(=S)[nH]c1O2 (stereo not drawn) | Herpes virus of type I | 70 |
| O=[N+]([O-])c1ccc(C2c3c(O)nc(=S)[nH]c3Oc3[nH]c(=S)nc(O)c32)cc1 | Herpes virus of type I | 30 |
| Nc1nc(=S)[nH]c2c1C(c1ccc([N+](=O)[O-])cc1)c1c(Cl)nc(=S)[nH]c1O2 (stereo not drawn) | Herpes virus of type I | 70 |
| O=[N+]([O-])c1ccc(C2c3c(O)nc(=S)[nH]c3Oc3[nH]c(=S)nc(Sc4nc(O)cc(O)n4)c32)cc1 (stereo not drawn) | Herpes virus of type I | 80 |
| Nc1nc(=S)[nH]c2c1C(c1ccc([N+](=O)[O-])cc1)c1c(O)nc(=S)[nH]c1O2 (stereo not drawn) | Herpes virus of type I | 80 |
| Nc1nc(=S)[nH]c2c1C(c1ccc([N+](=O)[O-])cc1)c1c(N)nc(=S)[nH]c1O2 | Herpes virus of type I | 80 |

* * *

Test system: Herpes virus of type I
assay: Protection of Vero cells from Herpes virus of type I
Assay type: cell-based
conditionInfo: compound 100 mg/l
observedProperty: percentage of protection of cells from virus (%)

| compound | experimentalResult |
| --- | --- |
| Nc1nc(=S)[nH]c2c1C(c1ccc([N+](=O)[O-])cc1)c1c(Cl)nc(=S)[nH]c1O2 (stereo not shown) | 80 |
| O=[N+]([O-])c1ccc(C2c3c(O)nc(=S)[nH]c3Oc3[nH]c(=S)nc(Sc4nc(O)cc(O)n4)c32)cc1 (stereo not shown) | 90 |
| Nc1nc(=S)[nH]c2c1C(c1ccc([N+](=O)[O-])cc1)c1c(N)nc(=S)[nH]c1N2 | 100 |
| O=[N+]([O-])c1ccc(C2c3cnc(=S)[nH]c3Oc3[nH]c(=S)nc(O)c32)cc1 (stereo not shown) | 80 |
